# assay.overview: Experimental LogD (partition coefficient)
# test.parameters: not stated, Partition Coeff LogD
Positions of bridges follow the written chain, without caps; N, C: chain ends. Non-standard residues stand in square brackets, D forms with d. Residues, ends and D or L forms follow the SMILES beside them. Lys(N3) = [N-]=[N+]=NCCCC[C@H](N)C(=O)O; R8 = C=CCCCCCC[C@@](C)(N)C(=O)O; Cba = N[C@@H](CC1CCC1)C(=O)O; S5 = C=CCCC[C@](C)(N)C(=O)O; βAla = NCCC(=O)O
Documented logD across a set of compounds
experimental.readout: logD

compound=CC(=O)N[C@@H](CC(C)C)C(=O)N[C@H](C(=O)N[C@@H](Cc1ccccc1)C(=O)NC(C)(C)C(=O)N[C@@H](CCC(=O)O)C(=O)N[C@@H](Cc1ccc(O)cc1)C(=O)N[C@H](Cc1c[nH]c2ccccc12)C(=O)N[C@@H](CCC(N)=O)C(=O)N[C@@H](CC(C)C)C(=O)N[C@@H](CC1CCC1)C(=O)NC(C)(C)C(=O)N[C@@H](CO)C(=O)N[C@@H](C)C(=O)N[C@@H](C)C(N)=O)[C@@H](C)O value=2.18
compound=CC(=O)N[C@@H](CCCCN=[N+]=[N-])C(=O)NCCC(=O)N[C@@H](CC(C)C)C(=O)N[C@H](C(=O)N[C@@H](Cc1ccccc1)C(=O)N[C@]1(C)CCCCCCC=CCCC[C@@](C)(C(=O)N[C@@H](CO)C(=O)N[C@@H](C)C(=O)N[C@@H](C)C(N)=O)NC(=O)[C@H](CC2CCC2)NC(=O)[C@H](CCC(N)=O)NC(=O)[C@H](C)NC(=O)[C@H](CCC(=O)O)NC(=O)[C@H](Cc2ccc(O)cc2)NC(=O)[C@H](CCC(=O)O)NC1=O)[C@@H](C)O value=1.7
compound=CC(=O)N[C@@H](CCCCN=[N+]=[N-])C(=O)NCCC(=O)N[C@@H](CC(C)C)C(=O)N[C@H](C(=O)N[C@@H](CCC(=O)O)C(=O)N[C@]1(C)CCCCCCC=CCCC[C@@](C)(C(=O)N[C@@H](CO)C(=O)N[C@@H](C)C(=O)N[C@@H](C)C(N)=O)NC(=O)[C@H](CC2CCC2)NC(=O)[C@H](CCC(N)=O)NC(=O)[C@H](C)NC(=O)[C@H](Cc2c[nH]c3ccccc23)NC(=O)[C@H](Cc2ccc(O)cc2)NC(=O)[C@H](CCC(=O)O)NC1=O)[C@@H](C)O value=1.78
compound="CC(=O)N[C@@H](CCCCN=[N+]=[N-])C(=O)N[C@@H](CC(C)C)C(=O)N[C@H](C(=O)N[C@@H](Cc1ccccc1)C(=O)N[C@]1(C)CCCCCCC=CCCC[C@@](C)(C(=O)N[C@@H](CCC(=O)O)C(N)=O)NC(=O)[C@H](CC2CCC2)NC(=O)[C@H](CCC(N)=O)NC(=O)[C@H](C)NC(=O)[C@H](Cc2c[nH]c3ccccc23)NC(=O)[C@H](Cc2ccc(O)cc2)NC(=O)[C@H](CCC(=O)O)NC1=O)[C@@H](C)O [MP-4008] (Ac-[Lys(N3)]LTF[R8]EYWAQ[Cba][S5]E-NH2; staple 5-12)" value=2.48
compound="CC(=O)N[C@@H](CCCCN=[N+]=[N-])C(=O)NCCC(=O)N[C@@H](CC(C)C)C(=O)N[C@H](C(=O)N[C@@H](Cc1ccccc1)C(=O)N[C@]1(C)CCCCCCC=CCCC[C@@](C)(C(N)=O)NC(=O)[C@H](CC2CCC2)NC(=O)[C@H](CCC(N)=O)NC(=O)[C@H](C)NC(=O)[C@H](Cc2c[nH]c3ccccc23)NC(=O)[C@H](Cc2ccc(O)cc2)NC(=O)[C@H](CCC(=O)O)NC1=O)[C@@H](C)O [MP-326] (Ac-[Lys(N3)][βAla]LTF[R8]EYWAQ[Cba][S5]-NH2; staple 6-13)" value=2.88

----------
# System: HCT116 cells
# assay.overview: Lactate dehydrogenase (LDH) release assay
# Format: cell-based
# test.parameters: 0% FBS 16Hr
Positions of bridges follow the written chain, without caps; N, C: chain ends. Non-standard residues stand in square brackets, D forms with d. Residues, ends and D or L forms follow the SMILES beside them. R8 = C=CCCCCCC[C@@](C)(N)C(=O)O; Cba = N[C@@H](CC1CCC1)C(=O)O; S5 = C=CCCC[C@](C)(N)C(=O)O
experimental.readout: LDH: Cytotoxicity assay % Effect (%)

compound="CC(=O)N[C@@H](CC(C)C)C(=O)N[C@H](C(=O)N[C@@H](Cc1ccccc1)C(=O)N[C@]1(C)CCCCCCC=CCCC[C@@](C)(C(=O)N[C@@H](CO)C(=O)N[C@@H](C)C(=O)N[C@@H](C)C(N)=O)NC(=O)[C@H](CC2CCC2)NC(=O)[C@H](CC(C)C)NC(=O)[C@H](CCC(N)=O)NC(=O)[C@H](Cc2c[nH]c3ccccc23)NC(=O)[C@H](Cc2ccc(O)cc2)NC(=O)[C@H](Cc2c[nH]cn2)NC1=O)[C@@H](C)O [MP-199, ATSP-7041 (E5H)] (Ac-LTF[R8]HYWQL[Cba][S5]SAA-NH2; staple 4-11)" value=24.3

----------
# assay.overview: physchem
Positions of bridges follow the written chain, without caps; N, C: chain ends. Non-standard residues stand in square brackets, D forms with d. Residues, ends and D or L forms follow the SMILES beside them. Lys(N3) = [N-]=[N+]=NCCCC[C@H](N)C(=O)O; R8 = C=CCCCCCC[C@@](C)(N)C(=O)O; Cba = N[C@@H](CC1CCC1)C(=O)O; S5 = C=CCCC[C@](C)(N)C(=O)O; βAla = NCCC(=O)O
experimental.readout: EPSA

compound="CC(=O)N[C@@H](CCCCN=[N+]=[N-])C(=O)NCCC(=O)N[C@@H](CC(C)C)C(=O)N[C@H](C)C(=O)N[C@@H](Cc1ccccc1)C(=O)N[C@]1(C)CCCCCCC=CCCC[C@@](C)(C(=O)N[C@@H](CO)C(=O)N[C@@H](C)C(=O)N[C@@H](C)C(N)=O)NC(=O)[C@H](CC2CCC2)NC(=O)[C@H](CCC(N)=O)NC(=O)[C@H](C)NC(=O)[C@H](Cc2c[nH]c3ccccc23)NC(=O)[C@H](Cc2ccc(O)cc2)NC(=O)[C@H](CCC(=O)O)NC1=O [MP-7471] (Ac-[Lys(N3)][βAla]L[dA]F[R8]EYWAQ[Cba][S5]SAA-NH2; staple 6-13)" value="229 A^2"
compound=CC(=O)N[C@@H](CCCCN=[N+]=[N-])C(=O)NCCC(=O)N[C@@H](CC(C)C)C(=O)N[C@H](C(=O)N[C@@H](Cc1ccccc1)C(=O)N[C@]1(C)CCCCCCC=CCCC[C@@](C)(C(=O)N[C@@H](CO)C(=O)N[C@@H](C)C(=O)N[C@@H](C)C(N)=O)NC(=O)[C@H](CC2CCC2)NC(=O)[C@H](CCC(N)=O)NC(=O)[C@H](C)NC(=O)[C@H](Cc2c[nH]c3cc(F)ccc23)NC(=O)[C@H](Cc2ccc(O)cc2)NC(=O)[C@H](CCC(=O)O)NC1=O)[C@@H](C)O value="201 A^2"
compound=CC(=O)N[C@H](CC(C)C)C(=O)N[C@H](C(=O)N[C@@H](Cc1ccccc1)C(=O)NC(C)(C)C(=O)N[C@@H](CCC(=O)O)C(=O)N[C@@H](Cc1ccc(O)cc1)C(=O)N[C@@H](Cc1c[nH]c2ccccc12)C(=O)N[C@@H](CCC(N)=O)C(=O)N[C@@H](CC(C)C)C(=O)N[C@@H](CC1CCC1)C(=O)NC(C)(C)C(=O)N[C@@H](CO)C(=O)N[C@@H](C)C(=O)N[C@@H](C)C(N)=O)[C@@H](C)O value="190 A^2"

----------
# assay.overview: physchem
Positions of bridges follow the written chain, without caps; N, C: chain ends. Non-standard residues stand in square brackets, D forms with d. Residues, ends and D or L forms follow the SMILES beside them. Lys(N3) = [N-]=[N+]=NCCCC[C@H](N)C(=O)O; R8 = C=CCCCCCC[C@@](C)(N)C(=O)O; Cba = N[C@@H](CC1CCC1)C(=O)O; S5 = C=CCCC[C@](C)(N)C(=O)O; βAla = NCCC(=O)O
experimental.readout: EPSA (A^2)

molecule="CC(=O)N[C@@H](CCCCN=[N+]=[N-])C(=O)NCCC(=O)N[C@@H](CC(C)C)C(=O)N[C@H](C(=O)N[C@@H](Cc1ccccc1)C(=O)N[C@]1(C)CCCCCCC=CCCC[C@@](C)(C(=O)N[C@@H](CO)C(=O)N[C@@H](C)C(=O)N[C@@H](C)C(N)=O)NC(=O)[C@H](CC2CCC2)NC(=O)[C@H](CCC(N)=O)NC(=O)[C@H](CCCCN)NC(=O)[C@H](Cc2c[nH]c3ccccc23)NC(=O)[C@H](Cc2ccc(O)cc2)NC(=O)[C@H](CCC(=O)O)NC1=O)[C@@H](C)O [MP-549, AZIDE-ATSP-7041 (A8K)]" measurement_unit=A^2 value=220
molecule=CC(=O)N[C@@H](CCCCN=[N+]=[N-])C(=O)NCCC(=O)N[C@@H](CC(C)C)C(=O)N[C@@H](CCC(=O)O)C(=O)N[C@@H](Cc1ccccc1)C(=O)N[C@]1(C)CCCCCCC=CCCC[C@@](C)(C(=O)N[C@@H](CO)C(=O)N[C@@H](C)C(=O)N[C@@H](C)C(N)=O)NC(=O)[C@H](CC2CCC2)NC(=O)[C@H](CCC(N)=O)NC(=O)[C@H](C)NC(=O)[C@H](Cc2c[nH]c3ccccc23)NC(=O)[C@H](Cc2ccc(O)cc2)NC(=O)[C@H](CCC(=O)O)NC1=O measurement_unit=A^2 value=243
molecule=CC(=O)N[C@@H](CC(C)C)C(=O)N[C@H](C(=O)N[C@@H](Cc1ccccc1)C(=O)NC(C)(C)C(=O)N[C@@H](CCC(=O)O)C(=O)N[C@@H](Cc1ccc(O)cc1)C(=O)N[C@@H](Cc1c[nH]c2ccccc12)C(=O)N[C@@H](CCC(N)=O)C(=O)N[C@@H](CC(C)C)C(=O)N[C@@H](CC1CCC1)C(=O)NC(C)(C)C(=O)N[C@@H](CO)C(=O)N[C@@H](C)C(=O)N[C@@H](C)C(N)=O)[C@@H](C)O measurement_unit=A^2 value=199
molecule="CC(=O)N[C@@H](CCCCN=[N+]=[N-])C(=O)NCCC(=O)N[C@@H](CC(C)C)C(=O)N[C@@H](CCCNC(=N)N)C(=O)N[C@@H](Cc1ccccc1)C(=O)N[C@]1(C)CCCCCCC=CCCC[C@@](C)(C(=O)N[C@@H](CO)C(=O)N[C@@H](C)C(=O)N[C@@H](C)C(N)=O)NC(=O)[C@H](CC2CCC2)NC(=O)[C@H](CCC(N)=O)NC(=O)[C@H](C)NC(=O)[C@H](Cc2c[nH]c3ccccc23)NC(=O)[C@H](Cc2ccc(O)cc2)NC(=O)[C@H](CCC(=O)O)NC1=O [MP-553] (Ac-[Lys(N3)][βAla]LRF[R8]EYWAQ[Cba][S5]SAA-NH2; staple 6-13)" measurement_unit=A^2 value=232
molecule="CC(=O)N[C@@H](Cc1ccccc1)C(=O)N[C@]1(C)CCCCCCC=CCCC[C@@](C)(C(=O)N[C@@H](CO)C(N)=O)NC(=O)[C@H](CC2CCC2)NC(=O)[C@H](CC(C)C)NC(=O)[C@H](CCC(N)=O)NC(=O)[C@H](Cc2c[nH]c3ccccc23)NC(=O)[C@H](Cc2ccc(O)cc2)NC(=O)[C@H](CCC(=O)O)NC1=O [MP-203] (Ac-F[R8]EYWQL[Cba][S5]S-NH2; staple 2-9)" measurement_unit=A^2 value=213

Data origin, for the record: paper PMC10786919
